We begin with a simple list: items and their reported MIC.
Test system: Staphylococcus aureus SA1199B
Format: cell-based
Report as a plain number; the unit µg/mL is understood.

Example results:
compound	measured_parameter	experimental_result
CNC(CC(C)C)C(=O)NC1C(=O)NC(CC(N)=O)C(=O)NC2C(=O)NC3C(=O)NC(C(=O)NC(C(=O)O)c4cc(O)cc(O)c4-c4cc3ccc4O)C(OC3CC(C)(N)C(O)C(C)O3)c3ccc(c(Cl)c3)Oc3cc2cc(c3OC2OC(CO)C(O)C(O)C2OC2CC(C)(NCc3ccc(OC(C)=O)cc3)C(O)C(C)O2)Oc2ccc(cc2Cl)C1O (stereo not drawn) [Compound 138]	MIC	0.5
CCOc1ccc2ccccc2c1CNC1(C)CC(OC2C(Oc3c4cc5cc3Oc3ccc(cc3Cl)C(OC3CC(C)(N)C(O)C(C)O3)C3NC(=O)C(NC(=O)C5NC(=O)C(CC(N)=O)NC(=O)C(NC(=O)C(CC(C)C)NC)C(O)c5ccc(c(Cl)c5)O4)c4ccc(O)c(c4)-c4c(O)cc(O)cc4C(C(=O)O)NC3=O)OC(CO)C(O)C2O)OC(C)C1O (stereo not drawn) [Compound 60]	MIC	0.5
CNC(CC(C)C)C(=O)NC1C(=O)NC(CC(N)=O)C(=O)NC2C(=O)NC3C(=O)NC(C(=O)NC(C(=O)O)c4cc(O)cc(O)c4-c4cc3ccc4O)C(OC3CC(C)(N)C(O)C(C)O3)c3ccc(c(Cl)c3)Oc3cc2cc(c3OC2OC(CO)C(O)C(O)C2OC2CC(C)(NCC3CCCCC3)C(O)C(C)O2)Oc2ccc(cc2Cl)C1O (stereo not drawn) [Compound 161]	MIC	0.25
CNC(CC(C)C)C(=O)NC1C(=O)NC(CC(N)=O)C(=O)NC2C(=O)NC3C(=O)NC(C(=O)NC(C(=O)O)c4cc(O)cc(O)c4-c4cc3ccc4O)C(OC3CC(C)(N)C(O)C(C)O3)c3ccc(c(Cl)c3)Oc3cc2cc(c3OC2OC(CO)C(O)C(O)C2OC2CC(C)(NCC34CC5CC(CC(C5)C3)C4)C(O)C(C)O2)Oc2ccc(cc2Cl)C1O (stereo not drawn) [Compound 141]	MIC	2

Now look at this one.
Lookup: Under Staphylococcus aureus SA1199B: MIC value of CNC(CC(C)C)C(=O)NC1C(=O)NC(CC(N)=O)C(=O)NC2C(=O)NC3C(=O)NC(C(=O)NC(C(=O)O)c4cc(O)cc(O)c4-c4cc3ccc4O)C(OC3CC(C)(N)C(O)C(C)O3)c3ccc(c(Cl)c3)Oc3cc2cc(c3OC2OC(CO)C(O)C(O)C2OC2CC(C)(NCc3ccc(-c4ccccc4)cc3F)C(O)C(C)O2)Oc2ccc(cc2Cl)C1O (stereo not drawn) [Compound 206] ?
Found: 1

---

We begin with a simple list: items and their reported MIC.
System: Staphylococcus aureus S13E
Type: cell-based
# output: number + unit

Example results:
molecule	measured_parameter	experimental_result
CNC(CC(C)C)C(=O)NC1C(=O)NC(CC(N)=O)C(=O)NC2C(=O)NC3C(=O)NC(C(=O)NC(C(=O)O)c4cc(O)cc(O)c4-c4cc3ccc4O)C(OC3CC(C)(N)C(O)C(C)O3)c3ccc(c(Cl)c3)Oc3cc2cc(c3OC2OC(CO)C(O)C(O)C2OC2CC(C)(NCc3ccc(OCCOCCCl)cc3)C(O)C(C)O2)Oc2ccc(cc2Cl)C1O (stereo not drawn) [Compound 75]	MIC	0 µg/mL
CNC(CC(C)C)C(=O)NC1C(=O)NC(CC(N)=O)C(=O)NC2C(=O)NC3C(=O)NC(C(=O)NC(C(=O)O)c4cc(O)cc(O)c4-c4cc3ccc4O)C(OC3CC(C)(N)C(O)C(C)O3)c3ccc(c(Cl)c3)Oc3cc2cc(c3OC2OC(CO)C(O)C(O)C2OC2CC(C)(NCc3ccc(-c4ccccc4)cc3F)C(O)C(C)O2)Oc2ccc(cc2Cl)C1O (stereo not drawn) [Compound 206]	MIC	1 µg/mL

Now look at this one.
Lookup: Item CNC(CC(C)C)C(=O)NC1C(=O)NC(CC(N)=O)C(=O)NC2C(=O)NC3C(=O)NC(C(=O)NC(C(=O)O)c4cc(O)cc(O)c4-c4cc3ccc4O)C(OC3CC(C)(N)C(O)C(C)O3)c3ccc(c(Cl)c3)Oc3cc2cc(c3OC2OC(CO)C(O)C(O)C2OC2CC(C)(NCc3ccc4c(c3)Cc3ccccc3-4)C(O)C(C)O2)Oc2ccc(cc2Cl)C1O (stereo not drawn) [Compound 32] has what recorded MIC?
Found: 1 µg/mL

---

Test system: vancomycin-resistant enterococci
test: broth micro-dilution, mean geometric MIC
Assay type: cell-based, Enterococcus faecium and Enterococcus faecalis
assay_context: enterococci, 24-hour incubation
measured_parameter: mean geometric MIC, Vancomycin Resistant Strains

molecule	experimental_result
CNC(CC(C)C)C(=O)NC1C(=O)NC(CC(N)=O)C(=O)NC2C(=O)NC3C(=O)NC(C(=O)NC(C(=O)O)c4cc(O)cc(O)c4-c4cc3ccc4O)C(OC3CC(C)(N)C(O)C(C)O3)c3ccc(c(Cl)c3)Oc3cc2cc(c3OC2OC(CO)C(O)C(O)C2OC2CC(C)(NCc3ccc(C)c(C)c3)C(O)C(C)O2)Oc2ccc(cc2Cl)C1O (stereo not drawn) [Compound 76]	8.0 mg/L
CNC(CC(C)C)C(=O)NC1C(=O)NC(CC(N)=O)C(=O)NC2C(=O)NC3C(=O)NC(C(=O)NC(C(=O)O)c4cc(O)cc(O)c4-c4cc3ccc4O)C(OC3CC(C)(N)C(O)C(C)O3)c3ccc(c(Cl)c3)Oc3cc2cc(c3OC2OC(CO)C(O)C(O)C2OC2CC(C)(NCc3ccc(-c4ccccn4)cc3)C(O)C(C)O2)Oc2ccc(cc2Cl)C1O (stereo not drawn) [Compound 137]	6.7 mg/L
CN[C@H](CC(C)C)C(=O)N[C@H]1C(=O)N[C@@H](CC(N)=O)C(=O)N[C@H]2C(=O)N[C@H]3C(=O)N[C@H](C(=O)N[C@H](C(=O)O)c4cc(O)cc(O)c4-c4cc3ccc4O)[C@H](O[C@H]3C[C@](C)(N)[C@@H](O)[C@H](C)O3)c3ccc(c(Cl)c3)Oc3cc2cc(c3O[C@@H]2O[C@H](CO)[C@@H](O)[C@H](O)[C@H]2O[C@H]2C[C@](C)(N)[C@@H](O)[C@H](C)O2)Oc2ccc(cc2Cl)[C@H]1O [Compound A82846B, A82846B, reference compound]	29 mg/L

Lookup: Item COc1ccc2ccccc2c1CNC1(C)CC(OC2C(Oc3c4cc5cc3Oc3ccc(cc3Cl)C(OC3CC(C)(N)C(O)C(C)O3)C3NC(=O)C(NC(=O)C5NC(=O)C(CC(N)=O)NC(=O)C(NC(=O)C(CC(C)C)N(C)Cc5c(OC)ccc6ccccc56)C(O)c5ccc(c(Cl)c5)O4)c4ccc(O)c(c4)-c4c(O)cc(O)cc4C(C(=O)O)NC3=O)OC(CO)C(O)C2O)OC(C)C1O (stereo not drawn) [Compound 282] has what recorded mean geometric MIC, Vancomycin Resistant Strains?
Found: 45 mg/L

Lookup: Item CNC(CC(C)C)C(=O)NC1C(=O)NC(CC(N)=O)C(=O)NC2C(=O)NC3C(=O)NC(C(=O)NC(C(=O)O)c4cc(O)cc(O)c4-c4cc3ccc4O)C(OC3CC(C)(N)C(O)C(C)O3)c3ccc(c(Cl)c3)Oc3cc2cc(c3OC2OC(CO)C(O)C(O)C2OC2CC(C)(NCC=Cc3ccccc3)C(O)C(C)O2)Oc2ccc(cc2Cl)C1O (stereo not drawn) [Compound 38] has what recorded mean geometric MIC, Vancomycin Resistant Strains?
Found: 4.0 mg/L

Lookup: Item CNC(CC(C)C)C(=O)NC1C(=O)NC(CC(N)=O)C(=O)NC2C(=O)NC3C(=O)NC(C(=O)NC(C(=O)O)c4cc(O)cc(O)c4-c4cc3ccc4O)C(OC3CC(C)(N)C(O)C(C)O3)c3ccc(c(Cl)c3)Oc3cc2cc(c3OC2OC(CO)C(O)C(O)C2OC2CC(C)(NCc3ccc(OC(=O)C4CCCCC4)cc3)C(O)C(C)O2)Oc2ccc(cc2Cl)C1O (stereo not drawn) [Compound 157] has what recorded mean geometric MIC, Vancomycin Resistant Strains?
Found: 2.0 mg/L

---

System: Streptococcus pyogenes C203
test: broth micro-dilution MIC
Type: cell-based
measured_parameter: MIC

compound	MIC
CNC(CC(C)C)C(=O)NC1C(=O)NC(CC(N)=O)C(=O)NC2C(=O)NC3C(=O)NC(C(=O)NC(C(=O)O)c4cc(O)cc(O)c4-c4cc3ccc4O)C(OC3CC(C)(N)C(O)C(C)O3)c3ccc(c(Cl)c3)Oc3cc2cc(c3OC2OC(CO)C(O)C(O)C2OC2CC(C)(NCc3cc(C)cc(C)c3)C(O)C(C)O2)Oc2ccc(cc2Cl)C1O (centres unmarked) [Compound 89]	≤ 0.06 µg/mL

Now look at this one.
Lookup: Item CNC(CC(C)C)C(=O)NC1C(=O)NC(CC(N)=O)C(=O)NC2C(=O)NC3C(=O)NC(C(=O)NC(C(=O)O)c4cc(O)cc(O)c4-c4cc3ccc4O)C(OC3CC(C)(N)C(O)C(C)O3)c3ccc(c(Cl)c3)Oc3cc2cc(c3OC2OC(CO)C(O)C(O)C2OC2CC(C)(NCc3ccc4cc(C)ccc4c3)C(O)C(C)O2)Oc2ccc(cc2Cl)C1O (centres unmarked) [Compound 189] has what recorded MIC?
Found: ≤ 0.06 µg/mL
